Target: CYP2C9 (Homo sapiens, UniProt P11712)
Sequence (P11712 whole entry): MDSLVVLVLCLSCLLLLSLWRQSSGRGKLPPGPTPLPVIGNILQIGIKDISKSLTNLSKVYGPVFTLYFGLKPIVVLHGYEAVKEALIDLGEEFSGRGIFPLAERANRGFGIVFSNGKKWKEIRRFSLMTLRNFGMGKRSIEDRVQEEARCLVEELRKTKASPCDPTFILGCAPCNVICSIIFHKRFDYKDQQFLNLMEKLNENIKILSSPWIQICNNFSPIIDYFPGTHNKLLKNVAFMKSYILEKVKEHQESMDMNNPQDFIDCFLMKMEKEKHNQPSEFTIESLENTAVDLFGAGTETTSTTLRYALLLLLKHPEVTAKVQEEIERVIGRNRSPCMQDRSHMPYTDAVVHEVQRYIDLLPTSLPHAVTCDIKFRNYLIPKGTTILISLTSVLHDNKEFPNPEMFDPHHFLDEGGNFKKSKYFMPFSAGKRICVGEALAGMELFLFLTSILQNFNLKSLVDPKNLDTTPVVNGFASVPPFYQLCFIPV
Assay: CYP inhibition in human liver microsomes
Conditions: human, human liver microsomes, probe diclofenac
Attribute Measured: activity at 20 min, 0.1 µM (%)

CCc1cc(Cl)c(OC)c(N2CCN(CC(O)CCNC(=O)c3cc4ccccc4[nH]3)CC2)c1 (stereo not shown) [R-VK4-116] : 89.5

###

Test system: CYP2B6 mRNA
Test: CYP induction, mRNA, primary cultured human hepatocytes
Conditions: primary cultured human hepatocytes, Fold Induction (CYP2B6 mRNA expression), hepatocyte Lot 348B, 3 µM
Attribute Measured: fold induction at 48 h, 3 µM

CCc1cc(Cl)c(OC)c(N2CCN(CC(O)CCNC(=O)c3cc4ccccc4[nH]3)CC2)c1 (stereo not shown) [R-VK4-116] : 1.1
